target: human GPR119 (Homo sapiens); construct: expression vector for human GPR119 cDNA (Acc. No. NP_848566); expressed in transfected cells; assay: AlphaScreen cAMP assay, activation of GPR119 in MIN6 cells stably transfected with human GPR119; assay type: cell-based; conditions: Min-6/hGPR119 cells, intracellular cAMP, 45 minutes incubation at room temperature
Sequence (Q8TDV5 whole entry): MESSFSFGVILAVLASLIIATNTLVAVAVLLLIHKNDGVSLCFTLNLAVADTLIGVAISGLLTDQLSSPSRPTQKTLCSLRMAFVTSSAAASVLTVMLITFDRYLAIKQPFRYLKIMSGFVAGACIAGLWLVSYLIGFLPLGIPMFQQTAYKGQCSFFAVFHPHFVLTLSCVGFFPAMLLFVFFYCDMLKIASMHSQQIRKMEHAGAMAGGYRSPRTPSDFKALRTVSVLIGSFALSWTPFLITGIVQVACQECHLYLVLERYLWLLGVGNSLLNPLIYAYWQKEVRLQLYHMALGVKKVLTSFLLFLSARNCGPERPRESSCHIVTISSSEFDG
Assay readout: pEC50
Field pEC50 (float): negative decimal logarithm of the concentration in molar.

The following compounds have reported results that may help.
1) C[C@@H](OC(=O)N1CCC([C@H]2Cc3cc(C4=CCN(S(C)(=O)=O)CC4)ncc3O2)CC1)C(F)(F)F [Example 3] : 8.22
2) C[C@@H](OC(=O)N1CCC([C@@]2(C)Cc3cc(C4=CCN(S(C)(=O)=O)CC4)ncc3O2)CC1)C(F)(F)F [Example 6] : 8.15

For the next question, use this compound.
Exam item: Lab note: need pEC50 with human GPR119 (Homo sapiens) for entry C[C@@H](OC(=O)N1CCC([C@H]2Cc3cc(-c4ccc(S(C)(=O)=O)cc4)ncc3O2)CC1)C(F)(F)F [Example 2] , please look it up.
Marked response: 8.22
